Biological target: HLA A3 (Homo sapiens)
Construct: EGFP; expressed in transfected cells; host or cells: T2 cells
Sequence (P04439 25-365): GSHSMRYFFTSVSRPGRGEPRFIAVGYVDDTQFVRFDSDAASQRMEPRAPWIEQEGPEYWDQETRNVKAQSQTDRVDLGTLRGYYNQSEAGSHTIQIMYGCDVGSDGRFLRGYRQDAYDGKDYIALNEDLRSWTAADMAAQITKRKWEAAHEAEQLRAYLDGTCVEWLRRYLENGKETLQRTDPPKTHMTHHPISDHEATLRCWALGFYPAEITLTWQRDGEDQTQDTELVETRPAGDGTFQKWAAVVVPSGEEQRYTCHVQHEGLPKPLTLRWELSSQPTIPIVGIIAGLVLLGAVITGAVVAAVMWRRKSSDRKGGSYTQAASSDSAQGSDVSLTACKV
Sequence (P61769 21-119, further chain): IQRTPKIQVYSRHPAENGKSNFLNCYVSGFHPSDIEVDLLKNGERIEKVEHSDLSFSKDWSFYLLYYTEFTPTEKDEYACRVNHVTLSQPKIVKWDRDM
Assay: MHC stabilization assay on T2 cells
Assay type: cell-based
Conditions: HLA A3 on transfected T2 cells; relative increase vs no peptide at 26° C.

>  <Primary Sequence>
SLRNSTVVR (human cytomegalovirus gH CTL epitope peptide)

>  <MSE (MHC stabilization efficiency)>
+++ (+++ = 200-300%)

$$$$
>  <Primary Sequence>
GVMTRGRLK

>  <MSE (MHC stabilization efficiency)>
+++ (+++ = 200-300%)

$$$$
>  <Primary Sequence>
LLLQRGPQY

>  <MSE (MHC stabilization efficiency)>
+++ (+++ = 200-300%)

$$$$
>  <Primary Sequence>
TLLNCAVTK (human cytomegalovirus pp50 CTL epitope peptide)

>  <MSE (MHC stabilization efficiency)>
+++ (+++ = 200-300%)

$$$$
>  <Primary Sequence>
IIYTRNHEVK (human cytomegalovirus IE2 CTL epitope peptide)

>  <MSE (MHC stabilization efficiency)>
+++ (+++ = 200-300%)

$$$$
>  <Primary Sequence>
RLLDLAPNY (human cytomegalovirus pp28 CTL epitope peptide)

>  <MSE (MHC stabilization efficiency)>
+++ (+++ = 200-300%)

$$$$
>  <Primary Sequence>
ELYLMGSLVH (human cytomegalovirus gH CTL epitope peptide)

>  <MSE (MHC stabilization efficiency)>
− (− = 0-50%)

$$$$
>  <Primary Sequence>
YLMDELRYVK (human cytomegalovirus gH CTL epitope peptide)

>  <MSE (MHC stabilization efficiency)>
− (− = 0-50%)

$$$$
>  <Primary Sequence>
ELLAGGRVF (human cytomegalovirus pp28 CTL epitope peptide)

>  <MSE (MHC stabilization efficiency)>
− (− = 0-50%)

$$$$
>  <Primary Sequence>
GIKHEGLVK (human cytomegalovirus pp28 CTL epitope peptide)

>  <MSE (MHC stabilization efficiency)>
+++ (+++ = 200-300%)

$$$$
>  <Primary Sequence>
RVTGGGAMA

>  <MSE (MHC stabilization efficiency)>
− (− = 0-50%)

$$$$
>  <Primary Sequence>
TVRSHCVSK (human cytomegalovirus pp50 CTL epitope peptide)

>  <MSE (MHC stabilization efficiency)>
+++ (+++ = 200-300%)

$$$$
>  <Primary Sequence>
QLNRHSYLK (human cytomegalovirus gH CTL epitope peptide)

>  <MSE (MHC stabilization efficiency)>
+++ (+++ = 200-300%)

$$$$
